molecular target: D(1A) dopamine receptor (Homo sapiens, UniProt P21728)
Sequence (P21728 whole entry): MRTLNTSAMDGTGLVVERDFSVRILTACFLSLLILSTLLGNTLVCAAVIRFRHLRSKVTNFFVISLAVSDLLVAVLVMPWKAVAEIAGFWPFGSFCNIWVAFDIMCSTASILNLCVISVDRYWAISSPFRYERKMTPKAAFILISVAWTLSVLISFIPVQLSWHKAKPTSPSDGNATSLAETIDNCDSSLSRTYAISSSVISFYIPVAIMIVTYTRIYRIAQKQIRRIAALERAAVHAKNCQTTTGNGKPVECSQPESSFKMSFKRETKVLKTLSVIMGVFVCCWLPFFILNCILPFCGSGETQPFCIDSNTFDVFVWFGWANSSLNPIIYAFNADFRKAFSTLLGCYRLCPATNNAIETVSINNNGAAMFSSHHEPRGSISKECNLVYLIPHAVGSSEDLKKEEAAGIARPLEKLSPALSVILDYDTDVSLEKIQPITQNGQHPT
ENDPOINT LABEL: AC50

- COMPOUND: "CC(C)C[C@H]1C(=O)N2CCC[C@H]2[C@]2(O)O[C@](NC(=O)[C@@H]3C[C@@H]4c5cccc6[nH]cc(c56)C[C@H]4N(C)C3)(C(C)C)C(=O)N12 [DIHYDROERGOCRYPTINE]"
  OBSERVED RESULT: "0.597 µM"

What AC50 value was documented for this compound, COC1=C(OC)C(=O)C(C/C=C(\C)CC/C=C(\C)CC/C=C(\C)CC/C=C(\C)CC/C=C(\C)CC/C=C(\C)CC/C=C(\C)CC/C=C(\C)CC/C=C(\C)CCC=C(C)C)=C(C)C1=O ? > 30 µM

What AC50 value was documented for this compound, O=C(O)c1ccccc1C(=O)Nc1ccc(S(=O)(=O)Nc2nccs2)cc1 ? > 30 µM

====

Biological target: UniProt P21731
Sequence (P21731 whole entry): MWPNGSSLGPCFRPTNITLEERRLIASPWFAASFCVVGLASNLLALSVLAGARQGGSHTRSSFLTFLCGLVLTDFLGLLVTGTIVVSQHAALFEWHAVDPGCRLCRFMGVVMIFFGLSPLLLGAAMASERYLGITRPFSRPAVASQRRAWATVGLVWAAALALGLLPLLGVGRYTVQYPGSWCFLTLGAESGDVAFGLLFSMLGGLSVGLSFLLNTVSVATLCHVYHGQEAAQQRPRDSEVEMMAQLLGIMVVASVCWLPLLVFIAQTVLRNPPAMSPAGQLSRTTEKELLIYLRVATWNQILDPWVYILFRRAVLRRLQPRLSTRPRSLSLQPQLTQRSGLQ
ENDPOINT LABEL: AC50

The examples below pair each entry with its known result.
- COMPOUND: "C[C@H](CSC(=O)c1ccccc1)C(=O)N1C[C@@H](Sc2ccccc2)C[C@H]1C(=O)O [ZOFENOPRIL]"
  OBSERVED RESULT: "> 10 µM"
- COMPOUND: "CC(C)(C)C(=O)Oc1ccc(S(=O)(=O)Nc2ccccc2C(=O)NCC(=O)O)cc1"
  OBSERVED RESULT: "> 30 µM"
- COMPOUND: "CCCC(C)C1(CC)C(=O)NC(=O)NC1=O (centres undefined) [PENTOBARBITAL]"
  OBSERVED RESULT: "> 10 µM"
- COMPOUND: "C=CCC1(C(C)CC)C(=O)NC(=O)NC1=O (centres undefined) [TALBUTAL]"
  OBSERVED RESULT: "> 10 µM"
- COMPOUND: "Cc1cccc(C(C)c2cnc[nH]2)c1C (centres undefined) [MEDETOMIDINE]"
  OBSERVED RESULT: "> 30 µM"

What AC50 value was documented for this compound, CCOc1ccc(Cc2cc([C@@H]3O[C@H](CO)[C@@H](O)[C@H](O)[C@H]3O)ccc2Cl)cc1 [DAPAGLIFLOZIN] ? > 30 µM

What AC50 value was documented for this compound, NCC(CC(=O)O)c1ccc(Cl)cc1 (centres undefined) [BACLOFEN] ? > 30 µM

What AC50 value was documented for this compound, Clc1ccc(C(c2ccccc2Cl)C(Cl)Cl)cc1 (centres undefined) [MITOTANE] ? > 10 µM

What AC50 value was documented for this compound, CCCC1O[C@@H]2C[C@H]3[C@@H]4CCC5=CC(=O)C=C[C@]5(C)[C@H]4[C@@H](O)C[C@]3(C)[C@]2(C(=O)CO)O1 (some centres undefined) [BUDESONIDE] ? > 10 µM

====

Some compounds, each annotated with its measured AC50.
Molecular target: 5-hydroxytryptamine receptor 1A (Homo sapiens, UniProt P08908); note: assay procedure not described here
Sequence (P08908 whole entry): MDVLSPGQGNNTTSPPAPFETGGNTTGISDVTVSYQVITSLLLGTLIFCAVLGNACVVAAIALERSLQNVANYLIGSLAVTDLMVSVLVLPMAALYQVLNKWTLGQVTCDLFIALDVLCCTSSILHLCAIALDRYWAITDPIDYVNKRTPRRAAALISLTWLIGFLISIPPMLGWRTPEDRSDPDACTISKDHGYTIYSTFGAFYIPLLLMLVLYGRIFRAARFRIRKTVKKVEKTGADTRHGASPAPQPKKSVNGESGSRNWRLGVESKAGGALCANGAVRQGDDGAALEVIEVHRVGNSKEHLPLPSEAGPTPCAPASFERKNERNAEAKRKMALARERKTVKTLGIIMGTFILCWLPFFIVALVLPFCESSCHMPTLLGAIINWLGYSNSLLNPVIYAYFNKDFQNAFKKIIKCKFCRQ

What AC50 value was documented for this compound, CN(C)S(=O)(=O)c1ccc2c(c1)N(CCCN1CCC(CCO)CC1)c1ccccc1S2 [PIPOTIAZINE] ? 0.32 µM

What AC50 value was documented for this compound, CCCCS(=O)(=O)N[C@@H](Cc1ccc(OCCCCC2CCNCC2)cc1)C(=O)O [TIROFIBAN] ? > 30 µM

====

molecular target: Prothrombin (Homo sapiens, UniProt P00734); type: functional; note: assay procedure not described here
Some compounds, each annotated with its measured AC50.

- COMPOUND: "CC[C@]1(O)C[C@H]2CN(CCc3c([nH]c4ccccc34)[C@@](C(=O)OC)(c3cc4c(cc3OC)N(C=O)[C@H]3[C@@](O)(C(=O)OC)[C@H](OC(C)=O)[C@]5(CC)C=CCN6CC[C@]43[C@@H]65)C2)C1 [VINCRISTINE]"
  AC50: "> 30 µM"
- COMPOUND: "C[N+](C)(C)CCO [CHOLINE]"
  AC50: "> 30 µM"
- COMPOUND: "CC[C@H]1CN2CCc3cc(OC)c(OC)cc3[C@@H]2C[C@@H]1C[C@H]1NCCc2cc(OC)c(OC)cc21 [EMETINE]"
  AC50: "> 30 µM"
- COMPOUND: "O=c1[nH]c(=O)n([C@H]2C[C@H](O)[C@@H](CO)O2)cc1F [FLOXURIDINE]"
  AC50: "> 30 µM"
- COMPOUND: "C=C[C@H]1C[N@@]2CC[C@H]1C[C@H]2[C@H](O)c1ccnc2ccc(OC)cc12 [QUININE]"
  AC50: "> 30 µM"

Query for Prothrombin (Homo sapiens, UniProt P00734): what AC50 does the record show for CCOc1ccccc1OCC1CNCCO1 (stereo not drawn) [VILOXAZINE] ? > 30 µM

Query for Prothrombin (Homo sapiens, UniProt P00734): what AC50 does the record show for CC(C)Nc1ncccn1 [ISAXONINE] ? > 30 µM

Query for Prothrombin (Homo sapiens, UniProt P00734): what AC50 does the record show for CN(C)CCn1nnnc1SCC1=C(C(=O)O)N2C(=O)[C@@H](NC(=O)Cc3csc(N)n3)[C@H]2SC1 [CEFOTIAM] ? > 30 µM

Query for Prothrombin (Homo sapiens, UniProt P00734): what AC50 does the record show for Nc1ccc(S(=O)(=O)c2cnc(N)s2)cc1 [THIAZOLSULFONE] ? > 30 µM

Query for Prothrombin (Homo sapiens, UniProt P00734): what AC50 does the record show for COC(c1ccccc1)(c1ccccc1)[C@H](Oc1nc(C)cc(C)n1)C(=O)O [AMBRISENTAN] ? > 30 µM

Query for Prothrombin (Homo sapiens, UniProt P00734): what AC50 does the record show for CN(C)CCN1C(=O)c2ccccc2N(C)c2ccccc21 [DIBENZEPIN] ? > 30 µM

Query for Prothrombin (Homo sapiens, UniProt P00734): what AC50 does the record show for CC1=C(/C=C/C(C)=C/C=C/C(C)=C/C=C/C=C(C)/C=C/C=C(C)/C=C/C2=C(C)CCCC2(C)C)C(C)(C)CCC1 [BETA CAROTENE] ? > 30 µM

====

target: D(3) dopamine receptor (Homo sapiens, UniProt P35462); note: assay procedure not described here
Sequence (P35462 whole entry): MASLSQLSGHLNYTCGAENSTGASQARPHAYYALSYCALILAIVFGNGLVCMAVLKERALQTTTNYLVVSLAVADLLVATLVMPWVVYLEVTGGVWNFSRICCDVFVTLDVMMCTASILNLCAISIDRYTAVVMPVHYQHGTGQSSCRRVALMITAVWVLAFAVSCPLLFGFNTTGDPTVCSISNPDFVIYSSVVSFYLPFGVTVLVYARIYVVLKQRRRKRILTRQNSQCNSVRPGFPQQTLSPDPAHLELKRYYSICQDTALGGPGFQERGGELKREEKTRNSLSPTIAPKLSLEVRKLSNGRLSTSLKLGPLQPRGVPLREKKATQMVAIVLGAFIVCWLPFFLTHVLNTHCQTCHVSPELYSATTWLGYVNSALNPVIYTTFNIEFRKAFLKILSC
Some molecules, each annotated with its measured AC50.

- MOLECULE: "CCCCCCOc1ccccc1C(N)=O [EXALAMIDE]"
  OBSERVED RESULT: "> 30 µM"
- MOLECULE: "CC1(C)NC(=O)N(c2ccc([N+](=O)[O-])c(C(F)(F)F)c2)C1=O [NILUTAMIDE]"
  OBSERVED RESULT: "> 30 µM"
- MOLECULE: "C[C@]12CC[C@H]3[C@@H](CCC4=CC(=O)CC[C@@]43C)[C@@H]1CC[C@@H]2O"
  OBSERVED RESULT: "> 30 µM"
- MOLECULE: "O=C(O)[C@H](CC(=O)N1C[C@H]2CCCC[C@H]2C1)Cc1ccccc1 [MITIGLINIDE]"
  OBSERVED RESULT: "> 30 µM"

Now for a further molecule.
What AC50 value was documented for this molecule, CN1CCN(CC/C=C2/c3ccccc3Sc3ccc(S(=O)(=O)N(C)C)cc32)CC1 ? 0.0139 µM

====

target: D(1A) dopamine receptor (Homo sapiens); type: functional, cell-based
ENDPOINT LABEL: AC50

The examples below pair each entry with its known result.
- COMPOUND: "Cc1cc(C(C)(C)C)c(O)c(C)c1CC1=NCCN1"
  AC50: "> 30 µM"
- COMPOUND: "CN(C)CCC(c1ccc(Cl)cc1)c1ccccn1 (stereo not drawn)"
  AC50: "> 10 µM"
- COMPOUND: "CN1[C@@H]2CC[C@H]1C[C@@H](OC(c1ccccc1)c1ccccc1)C2"
  AC50: "> 30 µM"

What AC50 value was documented for this compound, CCOC(=O)[N-]c1cn(N2CCOCC2)n[o+]1 ? > 30 µM

What AC50 value was documented for this compound, COc1ccccc1N1CCN(CC(O)COc2cccc3ccccc23)CC1 (stereo not drawn) ? > 30 µM

What AC50 value was documented for this compound, CN(C)CCC=C1c2ccccc2C(C)(C)c2ccccc21 ? > 30 µM

What AC50 value was documented for this compound, CO[C@@H]1[C@@H](O[C@@H]2O[C@H](C)[C@@H](O[C@H]3C[C@@](C)(O)[C@@H](OC(=O)CC(C)C)[C@H](C)O3)[C@H](N(C)C)[C@H]2O)[C@@H](CC=O)C[C@@H](C)[C@@H](O)/C=C/C=C/C[C@@H](C)OC(=O)C[C@H]1OC(C)=O ? > 10 µM

What AC50 value was documented for this compound, COc1ccccc1OCC(O)CN1CCN(CC(=O)Nc2c(C)cccc2C)CC1 (stereo not drawn) ? > 30 µM
